# TARGET_DESC: YWHAB (UniProt P31946)
# Sequence (P31946 whole entry, looked up): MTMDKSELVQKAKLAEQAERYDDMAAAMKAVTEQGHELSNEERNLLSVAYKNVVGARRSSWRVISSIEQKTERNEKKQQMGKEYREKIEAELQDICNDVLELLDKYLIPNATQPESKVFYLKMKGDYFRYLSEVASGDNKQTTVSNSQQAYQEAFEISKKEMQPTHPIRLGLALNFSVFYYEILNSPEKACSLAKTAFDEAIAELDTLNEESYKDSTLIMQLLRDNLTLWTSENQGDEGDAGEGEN
# EXPERIMENTAL_PROTOCOL: log2 fold change, soluble protein after heating vs DMSO (PISA); higher = thermal stabilisation; K562 cells, 10 uM, 30 min; active = over 0.2 and 3.5 SD of the protein, either way, in both replicates (recomputed)
About 7,900 targets were measured; listed, in parts, are those with a hit and a random draw of the rest. About 0.6% of all pairs of compound and target were hits.
Classify by log2 fold change. Ranges: bottom range: < -0.01; center range: ≥ -0.01 and < 0.01; top range: ≥ 0.01

COMPOUND	LABEL_CLASS
COc1cc(Nc2ncc3c(n2)-c2ccc(Cl)cc2C(c2c(F)cccc2OC)=NC3)ccc1C(=O)O	top range
CC[C@@H]1C(=O)N(C)c2cnc(Nc3ccc(C(=O)N[C@H]4CC[C@H](N5CCN(CC6CC6)CC5)CC4)cc3OC)nc2N1C(C)C	top range
C[C@@H]1COCCN1c1cc(C2(S(C)(=O)=O)CC2)nc(-c2cccc3[nH]ccc23)n1	top range
C=CC(=O)N1CCC[C@@H](n2nc(-c3ccc(Oc4ccccc4)cc3)c3c(N)ncnc32)C1	bottom range
CC(C)c1cnn2c(NCc3ccccc3)cc(NCCCCCCN)nc12	top range
Cc1ncc(-c2ccnc(Nc3ccc(S(C)(=O)=O)cc3)n2)n1C(C)C	center range
CC1=C(C(=O)Nc2cc3cn[nH]c3cc2F)C(c2ccc(C(F)(F)F)cc2)CC(=O)N1 (configuration not stated)	center range
Oc1cc(-c2nc(-c3ccccc3)[nH]c2-c2ccncc2)ccc1Cl	bottom range
COc1cc2nc(-c3cc(F)ccc3O)nc(N[C@@H]3CNC[C@H]3C(C)(C)O)c2cc1OC	bottom range
Cc1ccc2c(=O)c3ccccc3n(CCCN)c2c1C	bottom range
CC(C)C[C@@H](C=O)NC(=O)[C@H](CC(C)C)NC(=O)[C@H](CC(C)C)NC(=O)OCc1ccccc1	center range
NC1(Cc2ccc(Cl)cc2)CCN(c2ncnc3[nH]ccc23)CC1	top range
COc1cc(C(=O)O)ccc1NC(=O)[C@@H]1N[C@@H](CC(C)(C)C)[C@](C#N)(c2ccc(Cl)cc2F)[C@H]1c1cccc(Cl)c1F	bottom range
Cc1cn(-c2cc(NC(=O)c3ccc(C)c(Nc4nccc(-c5cccnc5)n4)c3)cc(C(F)(F)F)c2)cn1	top range
CN1CC[C@H](c2c(O)cc(O)c3c(=O)cc(-c4ccccc4Cl)oc23)[C@H](O)C1	bottom range
Cc1ccc(NC(=O)c2cccc(C(C)(C)C#N)c2)cc1Nc1ccc2ncn(C)c(=O)c2c1	top range
COc1cc2ncnc(Nc3ccc(F)c(Cl)c3)c2cc1OCCCN1CCOCC1	center range
